- PROTOCOL: E1%: relative UV absorbance of a 1% w/w solution
- Type: physicochemical
- MEASUREMENT SETUP: relative measure of the UV absorbance of a 1% w/w solution of the compound
- Source text: This example compares the ultraviolet light absorbing properties and water resistance properties of compounds of the invention. E1% is a relative measure of the UV absorbance of a 1% w/w solution of the compound.
MEASUREMENT LABEL: E1%
Give a plain numeric answer without units written out.

// query Can you share its E1%? I mean this compound: CCCCCCCCCC(=O)C1=CN(CC(C)C)CCC1(C)C [Compound 16]
// result 91

// query Now the compound CCCCCCCC(=O)C1=CN(C(C)C)CCC1(C)C [Compound 23]
// result 105
